Here, each record is paired with measured pIC50 data.
- Test system: H929 multiple myeloma tumor line
- Assay Details: In vitro cytotoxicity, MTT assay (Example B, Method A)
- Type: cell-based
- Assay Context: H929 cells, 48 hours exposure, read-out: C50
The read-out pIC50 is expressed as -log10 of concentration in moles per litre.

Worked cases, pIC50 given:
C[C@@H]1CCCc2nccc(OCC(F)CC3Cc4ccccc4[C@]34CC[C@@](Nc3cccc(Cl)c3)(C(=O)O)CC4)c21 (single isomer, unassigned) [Example 510]    6.60
Cc1cccc(C2Cc3ccccc3[C@]23CC[C@@](Nc2cccc(Cl)c2)(C(=O)O)CC3)c1 (single isomer, unassigned)    4.52

Proceed to the following item.
Value of pIC50 reported for the compound C[C@@H](COc1ccnc2c1[C@H]1CCC[C@H]1C2)C[C@H]1Cc2ccccc2[C@]12CC[C@@](Nc1cccc(Cl)c1)(C(=O)O)CC2 (single isomer, unassigned) [Example 620] is 6.05

// provenance: patent US20240150293A1
